# STUDY SYSTEM: Opiate Receptor, μ (OP3, MOP) (Homo sapiens)
# Sequence (P35372 whole entry): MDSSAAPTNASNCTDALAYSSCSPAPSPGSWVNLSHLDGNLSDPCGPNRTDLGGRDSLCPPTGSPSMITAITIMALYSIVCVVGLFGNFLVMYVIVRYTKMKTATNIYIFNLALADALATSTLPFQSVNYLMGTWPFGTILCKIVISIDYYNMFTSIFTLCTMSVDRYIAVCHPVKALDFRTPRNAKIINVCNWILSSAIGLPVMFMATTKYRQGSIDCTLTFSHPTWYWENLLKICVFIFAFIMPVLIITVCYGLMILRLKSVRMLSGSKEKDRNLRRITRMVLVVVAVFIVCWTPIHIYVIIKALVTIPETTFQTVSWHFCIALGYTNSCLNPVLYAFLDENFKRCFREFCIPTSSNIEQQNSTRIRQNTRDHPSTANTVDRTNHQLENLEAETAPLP
# PROTOCOL DESCRIPTION: Radioligand competition binding, Opiate Receptor, μ (OP3, MOP), [3H]-diprenorphine, CHO-K1 cells
VALUE TYPE: pIC50
Would you please state pIC50, meaning minus log10 of the concentration in mol/L, as a bare number?

# pIC50 of C=CCN1C[C@H](C)N([C@H](c2ccc(C(=O)N(CC)CC)cc2)c2cccc(O)c2)C[C@H]1C [(+) BW373U86, reference compound] = 6.51

Please fill in: pIC50 reported for CCN(CC)C(=O)c1ccc(C(c2cccc(O)c2)N2CCN(Cc3ccccc3)CC2)cc1 (centres unmarked) [N-benzyl-deallyl-demethyl-BW373U86] = 5.56
